B1: Peroxisome proliferator-activated receptor delta, residues 71 to 145; numbered along this chain, Q03181 (parent)
chain: NMECRVCGDKASGFHYGVHACEGCKGFFRRTIRMKLEYEKCERSCKIQKKNRNKCQYCRFQKCLALGMSHNAIRF

variants of: B1; assay: abundance fitness (aPCA) (normalised: wild type 0, dead -1); higher = more abundant; growth selection in yeast, the domain comes from the species named; settings: Homo sapiens
Parameter: abundance fitness

>>> value("NMECRVCGDKASGFHYHVHACEGCKGFFRRTIRMKLEYEKCERSCKIQKKNRNKCQYCRFQKCLALGMSHNAIRF [G17H]")
-0.682
>>> value("NMECRVCGDKASGFHYGVHACEGCKGFFRRTIRMKLEYEKCERRCKIQKKNRNKCQYCRFQKCLALGMSHNAIRF [S44R]")
-0.05
>>> value("NMECRVCGDKASGFHYGVHACEGCKGFFRRTIRMKLEYEPCERSCKIQKKNRNKCQYCRFQKCLALGMSHNAIRF [K40P]")
-0.117
>>> value("NMECRVCGDKASGFHYGVHACEGCKGFFRRTIRMKLEYEKCERSCKIQKKNRNKCQYCRFQKCLALGMSHNAIMF [R74M]")
0.004
>>> value("NCECRVCGDKASGFHYGVHACEGCKGFFRRTIRMKLEYEKCERSCKIQKKNRNKCQYCRFQKCLALGMSHNAIRF [M2C]")
-0.064
>>> value("NMECRVCGDKASGFHYGVHACEGCKGFFRRTHRMKLEYEKCERSCKIQKKNRNKCQYCRFQKCLALGMSHNAIRF [I32H]")
-0.405
>>> value("NMECRVCGDKASGFHYWVHACEGCKGFFRRTIRMKLEYEKCERSCKIQKKNRNKCQYCRFQKCLALGMSHNAIRF [G17W]")
-0.918
>>> value("NMECRFCGDKASGFHYGVHACEGCKGFFRRTIRMKLEYEKCERSCKIQKKNRNKCQYCRFQKCLALGMSHNAIRF [V6F]")
-0.547
>>> value("NMECRVCGDKASGFHYGVHACEGCKGFFRRTMRMKLEYEKCERSCKIQKKNRNKCQYCRFQKCLALGMSHNAIRF [I32M]")
-0.142
>>> value("NMECRVCGDKASGEHYGVHACEGCKGFFRRTIRMKLEYEKCERSCKIQKKNRNKCQYCRFQKCLALGMSHNAIRF [F14E]")
0.066
>>> value("NMECRVCGDKATGFHYGVHACEGCKGFFRRTIRMKLEYEKCERSCKIQKKNRNKCQYCRFQKCLALGMSHNAIRF [S12T]")
-0.06

Cited source: the Human Domainome abundance scans (Beltran et al. 2025)
